All figures here come from patent US12421216B2.

assay: Quantitative solubility determination of voruciclib malonate after the thermocycling experiments (UPLC); format: physicochemical; conditions: isopropyl acetate, organic solvent or mixture, thermodynamic from solid, Isopropyl acetate, read-out: Solubility
readout label: solubility (mg/mL)
Give bare numbers, in mg/mL.

## Input Endpoint output: solubility of CN1CC[C@H](c2c(O)cc(O)c3c(=O)cc(-c4ccc(C(F)(F)F)cc4Cl)oc23)[C@H]1CO (stereo in doubt) [voruciclib malonate] . Value?
## Output 0.1

====

assay: Quantitative solubility determination of voruciclib malonate after the thermocycling experiments (UPLC); assay type: physicochemical; conditions: water, thermodynamic from solid, Water, read-out: Solubility
readout label: solubility (mg/mL)
One number for each entry, in mg/mL.

## Input Value lookup for solubility; key = CN1CC[C@H](c2c(O)cc(O)c3c(=O)cc(-c4ccc(C(F)(F)F)cc4Cl)oc23)[C@H]1CO (stereo in doubt) [voruciclib malonate]
## Output 13.6
